# Tested On: T1, IL-18 receptor (IL-18Rαβ) on cells (UniProt Q13478 19-541; O95256 20-599, limits assumed)
# T1 sequence (looked up) 1: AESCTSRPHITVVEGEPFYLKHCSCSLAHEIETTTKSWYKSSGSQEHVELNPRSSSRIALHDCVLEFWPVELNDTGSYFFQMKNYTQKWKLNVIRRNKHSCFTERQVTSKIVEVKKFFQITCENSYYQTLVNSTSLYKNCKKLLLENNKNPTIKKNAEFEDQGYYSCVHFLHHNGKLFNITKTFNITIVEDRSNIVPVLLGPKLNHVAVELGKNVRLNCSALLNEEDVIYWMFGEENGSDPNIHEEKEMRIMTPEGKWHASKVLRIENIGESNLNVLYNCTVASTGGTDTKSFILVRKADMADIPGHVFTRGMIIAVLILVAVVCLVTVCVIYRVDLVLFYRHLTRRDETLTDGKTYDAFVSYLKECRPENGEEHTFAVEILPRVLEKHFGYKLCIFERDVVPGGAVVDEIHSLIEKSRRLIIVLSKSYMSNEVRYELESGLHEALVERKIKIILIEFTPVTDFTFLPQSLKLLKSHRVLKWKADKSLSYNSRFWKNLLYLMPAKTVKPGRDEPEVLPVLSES
# T1 sequence (looked up) 2: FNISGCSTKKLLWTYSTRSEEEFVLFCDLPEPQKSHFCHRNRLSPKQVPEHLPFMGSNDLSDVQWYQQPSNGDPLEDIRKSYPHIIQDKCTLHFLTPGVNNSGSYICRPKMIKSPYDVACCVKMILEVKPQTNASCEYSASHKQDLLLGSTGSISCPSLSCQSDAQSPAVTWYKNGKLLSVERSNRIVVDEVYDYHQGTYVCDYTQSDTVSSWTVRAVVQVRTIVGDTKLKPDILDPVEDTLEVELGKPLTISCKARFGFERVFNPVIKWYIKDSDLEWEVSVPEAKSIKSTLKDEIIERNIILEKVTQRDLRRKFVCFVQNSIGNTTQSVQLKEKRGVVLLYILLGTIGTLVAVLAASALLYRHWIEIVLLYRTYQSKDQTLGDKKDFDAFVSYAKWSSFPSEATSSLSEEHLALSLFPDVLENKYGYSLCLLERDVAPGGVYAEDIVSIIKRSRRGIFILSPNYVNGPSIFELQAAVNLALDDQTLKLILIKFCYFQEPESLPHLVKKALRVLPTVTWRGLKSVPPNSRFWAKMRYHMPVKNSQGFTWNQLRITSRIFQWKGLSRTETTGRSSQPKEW
# Assay Protocol: cell-based or functional assay
Parameter Measured: EC50 (IFNγ stimulation, NK92) (nM)
Kindly provide the numeric value in nM only, without the unit symbol.

Binder	Result
C166 (ligand) YFGKLESKLSIIRNLNDQVLFIDQGNRPLFEDMTDSDARDNAPRTIFIISMYKDTQPRGMAVTISVKCEKISTLSAENKIISFKEMNPPDNIKDTKSDIIFFQRSVPGHDNKMQFESSSYEGYFLAAEKERDLFKLILKKEDELGDRSIMFTVQNED	0.098

So for C144 (ligand) YFGKLESKLSIIRNLNDQVLFIDQGNRPLFEDMTDSDARDNAPRTIFIISMYADSQPRGMAVAISVKCEKISTLSAENKIISFKEMNPPDNIKDTKSDIIFFQRSVPGHDNKMQFESSSYEGYFLAAEKERDLFKLILKKEDELGDRSIMFTVQNED , the logged EC50 (IFNγ stimulation, NK92) turned out to be 0.012

Every entry's value here was drawn from patent US20250197467A1.
